# Tested on: 786-O
# method.description: Euclidean distance of Cell Painting phenotypic profile (signed KS, 77 features) to DMSO centroid (dimensionless distance); 5 or 10 uM (library dependent); higher = stronger phenotypic change vs DMSO (phenoactivity)
# condition.details: 48 h
observed.property: Euclidean distance
Keep the answer to the number alone.

Past entries and their recorded results:
| compound | result |
| --- | --- |
| CCCCCCCCc1ccc(CCC(N)(CO)CO)cc1 | 5.32 |
| CCc1cccc2c3c([nH]c12)C(CC)(CC(=O)O)OCC3 (stereo not drawn) | 0.711 |

Here's the next entry for you.
Kindly note the recorded Euclidean distance for CCCN1CCCC[C@H]1C(=O)Nc1c(C)cccc1C [Ropivacaine Mesilate] , which is 0.655

---

Collected Euclidean distance values appear next to each entry.
# Test system: OVCAR4
# method.description: Euclidean distance of Cell Painting phenotypic profile (signed KS, 77 features) to DMSO centroid (dimensionless distance); 5 or 10 uM (library dependent); higher = stronger phenotypic change vs DMSO (phenoactivity)
# condition.details: 48 h
Keep the answer to the number alone.

| molecule | Euclidean distance |
| --- | --- |
| COc1ncnc(NS(=O)(=O)c2ccc(N)cc2)c1OC [Sulfadoxine] | 1.39 |
| CC(C)c1c(C(=O)Nc2ccccc2)c(-c2ccccc2)c(-c2ccc(F)cc2)n1CC[C@@H](O)C[C@@H](O)CC(=O)O [atorvastatin] | 1.24 |

Kindly note the recorded Euclidean distance for CC1=C(C(=O)O)N2C(=O)[C@@H](NC(=O)[C@H](N)c3ccccc3)[C@H]2SC1 [Cephalexin] , which is 1.1

Kindly note the recorded Euclidean distance for CC(C(=O)O)c1ccc(C(=O)c2cccs2)cc1 (stereo not given) [Suprofen] , which is 1.01

Kindly note the recorded Euclidean distance for O=C(Nc1ccccc1-c1cn2c(CN3CCNCC3)csc2n1)c1cnc2ccccc2n1 , which is 5.14

---

# Test system: FB
# method.description: Euclidean distance of Cell Painting phenotypic profile (signed KS, 77 features) to DMSO centroid (dimensionless distance); 5 or 10 uM (library dependent); higher = stronger phenotypic change vs DMSO (phenoactivity)
# condition.details: 48 h
Use yes (1) when the recorded Euclidean distance is no lower than 1; use no (0) when it is lower.

Sample answers from the record:
| compound | target.system | assigned.label |
| --- | --- | --- |
| COc1cc2nccc(Oc3ccc(NC(=O)NC4CC4)c(Cl)c3)c2cc1C(N)=O [Lenvatinib (E7080)] | FB | yes (1) |
| C[C@@H]1O[C@@H](OC[C@H]2O[C@@H](Oc3c(-c4ccc(O)c(O)c4)oc4cc(O)cc(O)c4c3=O)[C@H](O)[C@@H](O)[C@@H]2O)[C@H](O)[C@H](O)[C@H]1O [Rutin] | FB | no (0) |
| Cc1ccc(Sc2ccccc2N2CCNCC2)c(C)c1 [Vortioxetine] | FB | yes (1) |
| NCc1ccc(S(N)(=O)=O)cc1 [Mafenide Acetate] | FB | yes (1) |
| O=C1Nc2ccccc2C1=O [Isatin] | FB | yes (1) |
| CC(C)=CCC/C(C)=C/CC/C(C)=C/CCC(=O)OC/C=C(\C)CCC=C(C)C [Gefarnate] | FB | yes (1) |
| CCNC(=O)CCC/C=C\C[C@@H]1[C@@H](/C=C/[C@@H](O)CCc2ccccc2)[C@H](O)C[C@@H]1O [Bimatoprost] | FB | yes (1) |
| N[C@@H](CC(=O)N1CCn2c(nnc2C(F)(F)F)C1)Cc1cc(F)c(F)cc1F [Sitagliptin phosphate monohydrate] | FB | no (0) |

Would you say COc1ccccc1N1CCN(CCN(C(=O)C2CCCCC2)c2ccccn2)CC1 shows Euclidean distance at minimum 1?
yes (1)

Would you say Cc1cnc(C(=O)O)c[n+]1[O-] [Acipimox] shows Euclidean distance at minimum 1?
no (0)

---

# System: OVCAR4
# method.description: Euclidean distance of Cell Painting phenotypic profile (signed KS, 77 features) to DMSO centroid (dimensionless distance); 5 or 10 uM (library dependent); higher = stronger phenotypic change vs DMSO (phenoactivity)
# condition.details: 48 h
Use yes (1) when the recorded Euclidean distance is no lower than 1; use no (0) when it is lower.

| molecule | assigned.label |
| --- | --- |
| N#CC[C@H](C1CCCC1)n1cc(-c2ncnc3[nH]ccc23)cn1 [Ruxolitinib Phosphate] | yes (1) |
| COCCNc1cc(NC(=O)N2CCCc3cc(CN4CCN(C)CC4=O)c(C=O)nc32)ncc1C#N | no (0) |
| C[C@H](CSC(=O)c1ccccc1)C(=O)N1C[C@@H](Sc2ccccc2)C[C@H]1C(=O)O | no (0) |
| CCCNC(=O)Nc1ccc(Oc2ncnc3cc(OC)c(OC)cc23)cc1Cl | yes (1) |
| COc1ccc2[nH]c([S@@+]([O-])Cc3ncc(C)c(OC)c3C)nc2c1 [Esomeprazole sodium] | no (0) |
| C#CCC(Cc1cnc2nc(N)nc(N)c2n1)c1ccc(C(=O)N[C@@H](CCC(=O)O)C(=O)O)cc1 (some centres undefined) [Pralatrexate] | yes (1) |

Would you say O=C(Nc1ccccc1Br)N[C@@H]1CCN(c2ccc(C(F)(F)F)cn2)C1 shows Euclidean distance at minimum 1?
yes (1)

Would you say Cc1c(Cc2ccc3ccccc3n2)c2cc(F)ccc2n1CC(=O)O shows Euclidean distance at minimum 1?
yes (1)

---

# Test system: HEPG2
# method.description: Euclidean distance of Cell Painting phenotypic profile (signed KS, 77 features) to DMSO centroid (dimensionless distance); 5 or 10 uM (library dependent); higher = stronger phenotypic change vs DMSO (phenoactivity)
# condition.details: 48 h
Collected Euclidean distance values appear next to each entry.
Keep the answer to the number alone.

| molecule | result |
| --- | --- |
| O=C(O)COc1nn(Cc2ccccc2)c2ccccc12 | 0.558 |
| CC(C)NCC(O)c1ccc(NS(C)(=O)=O)cc1 (centres undefined) | 0.602 |
| Cc1cc(C(C)(C)C)c(O)c(C(C)(C)C)c1 [Butylated hydroxytoluene] | 1.03 |

Kindly note the recorded Euclidean distance for CCN1C[C@H](C)n2c(c(O)c3c(=O)n(Cc4ccc(F)c(Cl)c4)nc(C(=O)NC)c32)C1=O , which is 0.645

Kindly note the recorded Euclidean distance for CN1C(C(=O)Nc2ccccn2)=C(O)c2sc(Cl)cc2S1(=O)=O , which is 1

Kindly note the recorded Euclidean distance for Nc1nc(N)nc(-c2cc(Cl)ccc2Cl)n1 , which is 0.613

Kindly note the recorded Euclidean distance for C=CC(=O)Nc1ccc2ncnc(Nc3cccc(Br)c3)c2c1 , which is 1.47

Kindly note the recorded Euclidean distance for NS(=O)(=O)c1ccc(NC(=O)Nc2ccc(F)cc2)cc1 , which is 1.44

Kindly note the recorded Euclidean distance for Cc1ccccc1C(=O)Nc1ccc(C(=O)N2CCCC(N(C)C)c3ccccc32)cc1 (centres undefined) , which is 0.445

---

# Tested on: HEPG2
# method.description: Euclidean distance of Cell Painting phenotypic profile (signed KS, 77 features) to DMSO centroid (dimensionless distance); 5 or 10 uM (library dependent); higher = stronger phenotypic change vs DMSO (phenoactivity)
# condition.details: 48 h
Structures can show the parent of a compound that is named as a salt.
Use condition met when the recorded Euclidean distance is no lower than 0.9; use condition not met when it is lower.

Sample answers from the record:
| compound | assigned.label |
| --- | --- |
| CC(CCc1ccccc1)NCC(O)c1ccc(O)c(C(N)=O)c1 (centres undefined) [Labetalol HCl] | condition not met |
| Nc1nc(NC2CC2)c2ncn([C@H]3C=C[C@@H](CO)C3)c2n1 [Abacavir] | condition not met |

Would you say CC(C)(C)c1cnc(CSc2cnc(NC(=O)C3CCNCC3)s2)o1 shows Euclidean distance at minimum 0.9?
condition met

Would you say CN1CCc2c(c3ccccc3n2Cc2ccc(C(=O)NO)cc2)C1 [Tubastatin A HCl] shows Euclidean distance at minimum 0.9?
condition not met

Would you say CCS(=O)(=O)CCn1c([N+](=O)[O-])cnc1C [Tinidazole] shows Euclidean distance at minimum 0.9?
condition not met

---

# System: OVCAR4
# method.description: Euclidean distance of Cell Painting phenotypic profile (signed KS, 77 features) to DMSO centroid (dimensionless distance); 5 or 10 uM (library dependent); higher = stronger phenotypic change vs DMSO (phenoactivity)
# condition.details: 48 h
Counter-ions that a name gives are not always drawn.
observed.property: Euclidean distance
Keep the answer to the number alone.

| compound | observed.property | result |
| --- | --- | --- |
| C[C@H]1[C@H](C)CC[C@]2(C(=O)O)CC[C@]3(C)C(=CC[C@@H]4[C@@]5(C)C[C@@H](O)[C@H](O)[C@@](C)(CO)[C@@H]5[C@H](O)C[C@]43C)[C@H]12 | Euclidean distance | 0.968 |
| CC(C)CN(C[C@@H](O)[C@H](Cc1ccccc1)NC(=O)O[C@H]1CCOC1)S(=O)(=O)c1ccc(N)cc1 | Euclidean distance | 1.6 |
| S=C(NCc1ccc2c(c1)OCO2)N1CCN(c2ncnc3c2oc2ccccc23)CC1 | Euclidean distance | 1.2 |
| Cc1c(C(N)=O)cc([N+](=O)[O-])cc1[N+](=O)[O-] [Dinitolmide] | Euclidean distance | 1.38 |
| Cc1ccc2c(=O)c3cccc(CC(=O)O)c3oc2c1C | Euclidean distance | 1.04 |
| NC[C@@H]1O[C@H](O[C@H]2[C@@H](O)[C@H](O[C@@H]3[C@@H](O)[C@H](N)C[C@H](N)[C@H]3O[C@H]3O[C@H](CO)[C@@H](O)[C@H](O)[C@H]3N)O[C@@H]2CO)[C@H](N)[C@@H](O)[C@@H]1O [Paromomycin Sulfate] | Euclidean distance | 1 |

Kindly note the recorded Euclidean distance for COc1cc2nc(N3CCCN(C)CC3)nc(NC3CCN(Cc4ccccc4)CC3)c2cc1OC , which is 3.6

Kindly note the recorded Euclidean distance for Cc1cnc(C(=O)N[C@H]2CCCCC/C=C\[C@@H]3C[C@@]3(C(=O)NS(=O)(=O)C3CC3)NC(=O)[C@@H]3C[C@@H](Oc4nc5ccccc5c5ccccc45)CN3C2=O)cn1 , which is 1.39

Kindly note the recorded Euclidean distance for CO[C@H]1C[C@@H]2CC[C@@H](C)[C@@](O)(O2)C(=O)C(=O)N2CCCC[C@H]2C(=O)O[C@H]([C@H](C)C[C@@H]2CC[C@H](n3cnnn3)[C@H](OC)C2)CC(=O)[C@H](C)/C=C(\C)[C@@H](O)[C@@H](OC)C(=O)[C@H](C)C[C@H](C)/C=C/C=C/C=C/1C , which is 2.09

Kindly note the recorded Euclidean distance for C=CC(=O)Nc1cccc(Nc2nc(Nc3ccc(OCCOC)cc3)ncc2F)c1 , which is 2.96

Kindly note the recorded Euclidean distance for CS(=O)(=O)CCNCc1ccc(-c2ccc3ncnc(Nc4ccc(OCc5cccc(F)c5)c(Cl)c4)c3c2)o1 [Lapatinib ditosylate monohydrate] , which is 3.37

Kindly note the recorded Euclidean distance for Oc1c(Cl)cc(Cl)cc1Sc1cc(Cl)cc(Cl)c1O , which is 1.23

Kindly note the recorded Euclidean distance for NCCCS(=O)(=O)O , which is 1.36

Kindly note the recorded Euclidean distance for N=C(N)NCCN1CCCCCCC1 [Guanethidine Monosulfate] , which is 1.68

Kindly note the recorded Euclidean distance for CCCCCCCCCCCCCCCCOP(=O)([O-])OCC[N+](C)(C)C , which is 1.63
